- target: WRN (BV08), human Werner helicase (Uniprot Q14191, amino acids 517-1235 with L1074F point mutation) (Homo sapiens (Human), UniProt Q14191, L1074F)
- Sequence (Q14191 other isoform, or with tags, fused parts or gaps L1074F (already in the parent)): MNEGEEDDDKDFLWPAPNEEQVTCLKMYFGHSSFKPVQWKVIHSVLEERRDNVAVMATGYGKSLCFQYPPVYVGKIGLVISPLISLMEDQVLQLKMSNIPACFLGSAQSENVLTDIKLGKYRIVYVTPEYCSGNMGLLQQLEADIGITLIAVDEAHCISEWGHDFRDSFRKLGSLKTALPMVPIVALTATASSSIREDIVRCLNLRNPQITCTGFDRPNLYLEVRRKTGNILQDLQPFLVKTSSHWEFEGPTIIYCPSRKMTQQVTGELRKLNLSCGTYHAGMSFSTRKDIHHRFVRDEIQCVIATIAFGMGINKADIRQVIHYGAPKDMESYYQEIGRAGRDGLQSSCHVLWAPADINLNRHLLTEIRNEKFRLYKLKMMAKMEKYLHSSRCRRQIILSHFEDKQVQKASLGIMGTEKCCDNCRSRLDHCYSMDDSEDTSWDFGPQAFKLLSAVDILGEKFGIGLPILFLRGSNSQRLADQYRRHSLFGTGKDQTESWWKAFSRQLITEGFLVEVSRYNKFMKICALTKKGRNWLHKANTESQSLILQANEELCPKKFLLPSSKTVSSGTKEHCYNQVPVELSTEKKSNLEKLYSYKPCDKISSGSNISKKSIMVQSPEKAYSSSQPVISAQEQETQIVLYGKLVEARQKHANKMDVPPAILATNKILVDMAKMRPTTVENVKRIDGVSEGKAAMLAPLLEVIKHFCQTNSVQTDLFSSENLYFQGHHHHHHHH
- assay.info: WRN (BV08) ADP-Glo assay
- study.conditions: class symbols A-E, read-out: ADP-Glo_hWRN_IC50
- Excerpt: Bovine skin gelatin (BSG), dimethyl sulfoxide (DMSO), Pluronic F-127 and tris(2-carboxyethyl)phosphine hydrochloride solution (TCEP) were purchased from Sigma-Aldrich (St. Louis, MO) at the highest level of purity possible. […] The reaction was stopped by the addition of the ADP-Glo Kit components (Promega; Madison, WI) as directed and the relative luminescence units (RLU) were read on an Envision 2104 (Perkin Elmer; Waltham, MA). % inhibition calculation: […]
pIC50: −log10 of the molar value.
outcome.measure: pIC50

Some entries whose results are on file:
compound	pIC50
CCc1c(N2CCN(C(=O)c3c(O)cnnc3OC)[C@H]3CC[C@@H]32)c(=O)c2nc(N(C)C)cnc2n1CC(=O)Nc1ccc(C(F)(F)F)cc1Cl	7.30 to 8.30
CCc1c(N2CCN(C(=O)c3ncnc(C)c3O)C3(CC3)C2)c(=O)c2nc(N(C)C)cnc2n1CC(=O)Nc1ccc(C(F)(F)F)cc1Cl	7.00 to 7.30

Next:
Incoming: In one line, give reported pIC50 of the entry CCc1c(N2CCN(C(=O)c3ncnc(C)c3O)[C@H](C)[C@@H]2C)c(=O)c2nc(N(C)C)cnc2n1CC(=O)Nc1ccc(C(F)(F)F)cc1Cl (single isomer, unassigned) .
Outgoing: 7.30 to 8.30

* * *

- target: WRN (BV08), human Werner helicase (Uniprot Q14191, amino acids 517-1235 with L1074F point mutation) (Homo sapiens (Human), UniProt Q14191, L1074F)
- assay.info: WRN (BV08) ADP-Glo assay
- study.conditions: class symbols A-E, read-out: ADP-Glo_hWRN_IC50
pIC50: −log10 of the molar value.
Entries and their measured pIC50 follow.

Answered examples (3):
compound	pIC50
CCc1c(N2CCN(C(=O)c3ncnc(C)c3O)[C@H]3CC[C@@H]32)c(=O)c2nc(-c3ccnc(OC)c3)cnc2n1CC(=O)Nc1ccc(C(F)(F)F)cc1Cl [I-283]	≥ 8.30
CCc1c(N2CCN(C(=O)c3ncnc(C)c3O)[C@H]3CC[C@@H]32)c(=O)c2nc(N(C)C[C@H](C)OC)cnc2n1CC(=O)Nc1ccc(C(F)(F)F)cc1Cl [I-269]	7.30 to 8.30
CCc1c(N2CCN(C(=O)c3ncnc(C)c3O)C(C)(C)C2)c(=O)c2nc(N(C)C)cnc2n1CC(=O)Nc1ccc(C(F)(F)F)cc1Cl [I-87]	7.30 to 8.30

Incoming: // fetch pIC50 given entry CCc1c(N2CCN(C(=O)c3ncnc(C)c3O)CC2)c(=O)c2nc3c(nc2n1CC(=O)Nc1ccc(C(F)(F)F)cc1Cl)CCN3C [I-116]
Outgoing: 7.30 to 8.30

Incoming: Look up pIC50 of CCc1c(N2CCN(C(=O)c3ncnc(C)c3O)CC2)c(=O)c2nc(N3CCC4(CCC4)C3)cnc2n1CC(=O)Nc1ccc(C(F)(F)F)cc1Cl [I-151] and report it.
Outgoing: 7.30 to 8.30

Incoming: Supply measured pIC50 of CCc1c(N2CCN(C(=O)c3ncnc(C)c3O)C[C@@H]2C)c(=O)c2nc(N(C)C)cnc2n1CC(=O)Nc1ccc(S(F)(F)(F)(F)F)cc1Cl [I-185] in your reply.
Outgoing: 7.30 to 8.30
